- ASSAY_TEXT: Ratio of drug level in mouse brain to plasma at 1 mg/kg, iv administered as 5 mins infusion after 30 mins
- Format: ADME, organism-based
- PARTICULARS: brain and plasma, read-out: BPR
EXPERIMENTAL_READOUT: Kp at 0.5 h

Requested read-out: Kp at 0.5 h. Entry: c1cn(-c2cc(NC3=NC[C@@]4(CN5CCC4CC5)O3)ncn2)cn1 0.21

====

Documented remaining at 10 min, 3 µM across a set of compounds
- ASSAY_TEXT: Metabolic stability in monkey liver microsomes assessed as compound remaining at 3 uM after 10 mins by LC-MS/MS analysis
- Assay type: ADME, Macaca mulatta, microsome
- PARTICULARS: rhesus monkey, read-out: Stability
Supply the numeric figure in %, leaving out any unit text.

- GIVEN_SMILES: "c1cn(-c2cc(NC3=NC[C@@]4(CN5CCC4CC5)O3)ncn2)cn1"
  MEASUREMENT_UNIT: "%"
  remaining at 10 min, 3 µM: 100

Requested read-out: remaining at 10 min, 3 µM. Entry: c1ccc2cc(NC3=NC[C@@]4(CN5CCC4CC5)O3)ncc2c1 78

====

- ASSAY_TEXT: Cmax in rat at 10 mg/kg, po
- Type: ADME, organism-based
- Set-up: dose 10 mg/kg, route oral
- PARTICULARS: in vivo
EXPERIMENTAL_READOUT: Cmax (nM)
Supply the numeric figure in nM, leaving out any unit text.

Requested read-out: Cmax. Entry: c1cn(-c2cc(NC3=NC[C@@]4(CN5CCC4CC5)O3)ncn2)cn1 1600

====

- ASSAY_TEXT: Total plasma clearance in cynomolgus monkey at 1 mg/kg, iv administered as 5 mins infusion
- Type: ADME, organism-based, Macaca fascicularis
EXPERIMENTAL_READOUT: clearance (mL/min/kg)
Supply the numeric figure in mL/min/kg, leaving out any unit text.

Requested read-out: clearance. Entry: c1cn(-c2cc(NC3=NC[C@@]4(CN5CCC4CC5)O3)ncn2)cn1 17

====

- ASSAY_TEXT: Half life in cynomolgus monkey at 1 mg/kg, iv administered as 5 mins infusion
- Type: ADME, organism-based, Macaca fascicularis
- PARTICULARS: in vivo
EXPERIMENTAL_READOUT: half-life (h)
Supply the numeric figure in h, leaving out any unit text.

Requested read-out: half-life. Entry: c1cn(-c2cc(NC3=NC[C@@]4(CN5CCC4CC5)O3)ncn2)cn1 4.4

====

- MEASURED_TARGET: Cytochrome P450 2D6 (Homo sapiens)
- Sequence (P10635 whole entry): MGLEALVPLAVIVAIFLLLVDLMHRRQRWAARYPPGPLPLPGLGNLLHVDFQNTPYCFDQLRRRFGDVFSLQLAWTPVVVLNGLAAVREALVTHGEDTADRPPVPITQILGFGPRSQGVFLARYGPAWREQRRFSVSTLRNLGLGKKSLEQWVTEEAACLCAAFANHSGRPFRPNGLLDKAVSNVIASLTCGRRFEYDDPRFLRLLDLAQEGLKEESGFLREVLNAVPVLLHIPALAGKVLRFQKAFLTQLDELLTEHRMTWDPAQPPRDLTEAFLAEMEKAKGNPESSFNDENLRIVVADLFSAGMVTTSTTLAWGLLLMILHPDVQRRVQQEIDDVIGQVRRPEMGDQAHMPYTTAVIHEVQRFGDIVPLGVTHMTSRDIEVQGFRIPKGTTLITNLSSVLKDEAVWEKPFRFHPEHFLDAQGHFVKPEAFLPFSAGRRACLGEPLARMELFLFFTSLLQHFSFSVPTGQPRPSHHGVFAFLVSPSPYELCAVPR
- ASSAY_TEXT: Inhibition of recombinant human CYP2D6 using fluorogenic substrate preincubated for 30 mins and measured after 20 to 60 mins in presence of NADPH regenerating system by fluorescence assay
pIC50: −log10 of the molar value.
EXPERIMENTAL_READOUT: pIC50

Requested read-out: pIC50. Entry: c1cn(-c2cc(NC3=NC[C@@]4(CN5CCC4CC5)O3)ncn2)cn1 < 4.52

====

- MEASURED_TARGET: Cytochrome P450 3A4 (Homo sapiens)
- Sequence (P08684 whole entry): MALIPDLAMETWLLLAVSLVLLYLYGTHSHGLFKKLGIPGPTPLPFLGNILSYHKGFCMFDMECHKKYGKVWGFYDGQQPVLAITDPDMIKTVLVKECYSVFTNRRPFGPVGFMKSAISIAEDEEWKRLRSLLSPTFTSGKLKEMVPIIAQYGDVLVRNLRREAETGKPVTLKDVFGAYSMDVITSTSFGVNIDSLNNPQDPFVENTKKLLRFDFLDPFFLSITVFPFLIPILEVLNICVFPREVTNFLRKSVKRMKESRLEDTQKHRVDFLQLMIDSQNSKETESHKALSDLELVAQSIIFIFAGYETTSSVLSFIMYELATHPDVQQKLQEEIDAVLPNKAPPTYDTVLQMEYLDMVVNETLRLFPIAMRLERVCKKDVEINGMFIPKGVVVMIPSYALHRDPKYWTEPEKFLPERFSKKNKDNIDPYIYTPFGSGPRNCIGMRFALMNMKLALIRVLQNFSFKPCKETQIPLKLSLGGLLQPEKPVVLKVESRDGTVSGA
- ASSAY_TEXT: Inhibition of recombinant human CYP3A4 using fluorogenic substrate BZR preincubated for 30 mins and measured after 20 to 60 mins in presence of NADPH regenerating system by fluorescence assay
- Format: ADME
pIC50: −log10 of the molar value.
EXPERIMENTAL_READOUT: pIC50

Write down the reported pIC50 of c1cn(-c2cc(NC3=NC[C@@]4(CN5CCC4CC5)O3)ncn2)cn1 , test system: Cytochrome P450 3A4 (Homo sapiens). < 4.52
